tested on: NCI-H322M lung; assay: NCI-60 one-dose screen, 48 h; conditions: 10 µM unless noted
About 83,000 compounds went through this panel and 20% of them were active in at least one assay; those are over-represented in the sample as a whole. Calls of active or inactive are those of the source. How the source made its calls: active means growth percent below 10; inactive means the rest.
One label from this list, please: active, inactive

Called result for O=C1c2ccccc2C2(c3ccc(O)cc3)c3ccccc3Oc3cccc1c32 (stereo not given)
inactive

Called result for `COc1ccc(-c2nnc(SCC(=O)NC3=NN=C(c4ccccc4)CS3)o2)cc1`
inactive

Called result for `Nc1ccc(-c2cc3c(Nc4ccc(OCc5cccc(F)c5)c(Cl)c4)ncnc3s2)cc1`
inactive

Called result for `CCN(CC)CCOc1ccc(/C(=C(\C)c2ccc(F)c(OC)c2)c2ccc(Cl)cc2)cc1`
inactive

Called result for `COc1cc2c(=O)n(CCCn3ccnc3)c3c4cc5c(cc4ccc3c2cc1OC)OCO5`
inactive

Called result for `NS(=O)(=O)Oc1ccc(NC(=O)C23CC4CC(CC(C4)C2)C3)cc1Cl`
inactive

Called result for `CCOC(=O)c1cnn2c(-c3ccc(Cl)cc3)nc(NCc3ccccc3)nc12`
inactive

Called result for C=C(C=O)C1CCC2(C(=O)O)CCC3(C)C(CCC4C5(C)CCC(O)C(C)(C)C5CCC43C)C12 (stereo not given)
inactive

Called result for `CNC1(C#N)CCN(Cc2ccccc2)CC1`
inactive

Called result for `Cc1ccc(NC(=O)C(Cl)Cl)cc1`
inactive

Called result for `CC(C)n1nc(C#Cc2cccc(O)c2)c2c(N)ncnc21`
active

Called result for `COc1cc(NC(=O)c2cc(O)c(CC=C(C)C)c(O)c2)cc2c1O[C@]1(C)CC[C@@H](O)C(C)(C)[C@H]1C2`
inactive

Called result for COc1cccc(CCC2CCCN(c3cc(C)nc(N)n3)C2)c1 (stereo not given)
inactive

Called result for `CCN1CCN(c2ccc(Nc3cc(-c4cccnc4Nc4c(Cl)c(OC)cc(OC)c4Cl)ncn3)cc2)CC1`
inactive

Called result for `CCCCS(=O)(=O)Oc1ccc(-c2nc(C)c(C(=O)OCC)s2)cc1C=O`
inactive

Called result for `N#Cc1c(Oc2ccc([N+](=O)[O-])cc2)nc2sc3cc(Cl)ccc3n2c1=N`
inactive

Called result for `COc1ccc(/C(C)=C(\c2ccc(Cl)cc2)c2ccc(OCCN3CCCCC3)cc2)cc1F`
inactive

Called result for `NC(=O)c1c(NC(=O)c2ccc(C(F)(F)F)cc2Cl)sc2c1CCC(=O)C2`
inactive

Called result for `Cc1cc(-c2noc(C(F)(F)F)n2)ccc1N1CCN(c2cc(C(=O)N(C)C)no2)CC1`
inactive

Called result for `O=C(NCCN1CCC(O)CC1)c1cc2c(o1)C(=O)c1ccccc1C2=O`
active

Data provenance is PubChem BioAssay (NCI).
